target: T1, ROR1 naturally expressed on human tumor cell lines (A549, Jeko-1, SW620, PA-1) (human, UniProt Q01973 30-937); test: FACS on Jeko-1 cells naturally expressing ROR1
T1 construct: whole, on cells; also called cells expressing ROR1
T1 sequence (Q01973 30-937): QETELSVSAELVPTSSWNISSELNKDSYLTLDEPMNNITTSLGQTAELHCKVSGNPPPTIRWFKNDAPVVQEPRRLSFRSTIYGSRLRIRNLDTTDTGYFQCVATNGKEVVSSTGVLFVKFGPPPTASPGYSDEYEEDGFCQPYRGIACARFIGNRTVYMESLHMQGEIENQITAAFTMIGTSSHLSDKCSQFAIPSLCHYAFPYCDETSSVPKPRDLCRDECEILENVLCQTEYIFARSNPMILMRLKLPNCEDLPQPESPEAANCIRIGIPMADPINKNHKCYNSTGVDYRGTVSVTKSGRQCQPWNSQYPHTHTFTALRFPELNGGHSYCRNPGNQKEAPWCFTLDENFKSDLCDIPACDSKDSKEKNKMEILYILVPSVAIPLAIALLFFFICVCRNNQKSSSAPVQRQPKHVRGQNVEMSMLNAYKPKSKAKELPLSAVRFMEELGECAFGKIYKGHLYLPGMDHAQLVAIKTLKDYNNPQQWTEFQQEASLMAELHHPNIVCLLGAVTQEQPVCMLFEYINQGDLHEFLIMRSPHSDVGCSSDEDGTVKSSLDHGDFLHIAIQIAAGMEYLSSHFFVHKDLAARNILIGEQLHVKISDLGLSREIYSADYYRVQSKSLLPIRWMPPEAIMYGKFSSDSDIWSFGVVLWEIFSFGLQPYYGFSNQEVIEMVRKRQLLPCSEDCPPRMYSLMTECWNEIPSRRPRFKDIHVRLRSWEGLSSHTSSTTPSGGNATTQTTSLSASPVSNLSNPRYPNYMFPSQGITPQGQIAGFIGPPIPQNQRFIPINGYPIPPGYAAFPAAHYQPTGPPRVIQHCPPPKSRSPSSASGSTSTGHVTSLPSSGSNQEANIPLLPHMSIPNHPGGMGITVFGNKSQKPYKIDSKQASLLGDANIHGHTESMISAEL
pEC50: −log10 of the molar value.
metric_name: pEC50

binder: hz137G11D10-3.1 (antibody, human IgG1, kappa, V domains shown, Humanized, human IgG1/kappa) VH: QVQLQESGPGLVKPSQTLSLTCTVSGYSITSDYAWNWIRQHPGKGLEWIGYITYSASTSYNPSLKSRVTISRDTSKNQFSLKLSSVTAADTAVYYCARGAGTYYFDYWGQGTLVTVSS VL: DIQMTQSPSSLSASVGDRVTITCITSTDIDEDMNWYQQKPGKAPKLLISEDNSLRPGVPSRFSSSGYGTDFTLTISSLQPEDFATYYCLQTNNLPLTFGQGTKVEIKR
measured_value: 10.92

binder: hz137G11D10-2.1 (antibody, human IgG1, kappa, V domains shown, Humanized, human IgG1/kappa) VH: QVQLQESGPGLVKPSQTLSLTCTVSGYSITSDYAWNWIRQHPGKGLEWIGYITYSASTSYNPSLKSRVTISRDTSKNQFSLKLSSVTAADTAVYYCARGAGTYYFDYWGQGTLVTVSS VL: DIQMTQSPSSLSASVGDRVTITCITSTDIDEDMNWYQQKPGKAPKLLIYEDNSLRPGVPSRFSGSGYGTDFTLTISSLQPEDFATYYCLQTNNLPLTFGQGTKVEIKR
measured_value: 11.00

binder: UC-961 (antibody, V domains shown) VH: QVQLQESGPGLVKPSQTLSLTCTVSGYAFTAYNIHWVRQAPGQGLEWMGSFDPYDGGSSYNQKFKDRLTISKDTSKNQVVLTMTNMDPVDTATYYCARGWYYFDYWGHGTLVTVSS VL: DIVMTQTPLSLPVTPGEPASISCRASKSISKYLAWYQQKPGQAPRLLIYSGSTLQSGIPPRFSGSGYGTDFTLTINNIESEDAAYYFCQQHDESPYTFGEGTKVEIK
measured_value: 10.72
